test system: HeLa Kyoto; assay: thermal stability score vs G1/S (z-score of summed log2 fold changes over temperatures); higher = more thermally stable than in G1/S; conditions: cell cycle stage: mitosis
Binary classification by thermal stability score, with -1 as an inclusive lower bound for satisfied; all other cases are not satisfied.

Answered examples (4):
SEQ TEXT | CAT
MAAGGRMEDGSLDITQSIEDDPLLDAQLLPHHSLQAHFRPRFHPLPTVIIVNLLWFIHLVFVVLAFLTGVLCSYPNPNEDKCPGNYTNPLKVQTVIILGKVILWILHLLLECYIQYHHSKIRNRGYNLIYRSTRHLKRLALMIQSSGNTVLLLILCMQHSFPEPGRLYLDLILAILALELICSLICLLIYTVKIRRFNKAKPEPDILEEEKIYAYPSNITSETGFRTISSLEEIVEKQGDTIEYLKRHNALLSKRLLALTSSDLGCQPSRT [TMEM192] | not satisfied
MALHSMRKARERWSFIRALHKGSAAAPALQKDSKKRVFSGIQPTGILHLGNYLGAIESWVRLQDEYDSVLYSIVDLHSITVPQDPAVLRQSILDMTAVLLACGINPEKSILFQQSQVSEHTQLSWILSCMVRLPRLQHLHQWKAKTTKQKHDGTVGLLTYPVLQAADILLYKSTHVPVGEDQVQHMELVQDLAQGFNKKYGEFFPVPESILTSMKKVKSLRDPSAKMSKSDPDKLATVRITDSPEEIVQKFRKAVTDFTSEVTYDPAGRAGVSNIVAVHAAVTGLSVEEVVRRSAGMNTARYKLAVADAVIEKFAPIKREIEKLKLDKDHLEKVLQIGSAKAKELAYTVCQEVKKLVGFL [WARS2] | satisfied
MTLEAIRYSRGSLQILDQLLLPKQSRYEAVGSVHQAWEAIRAMKVRGAPAIALVGCLSLAVELQAGAGGPGLAALVAFVRDKLSFLVTARPTAVNMARAARDLADVAAREAEREGATEEAVRERVICCTEDMLEKDLRDNRSIGDLGARHLLERVAPSGGKVTVLTHCNTGALATAGYGTALGVIRSLHSLGRLEHAFCTETRPYNQGARLTAFELVYEQIPATLITDSMVAAAMAHRGVSAVVVGADRVVANGDTANKVGTYQLAIVAKHHGIPFYVAAPSSSCDLRLETGKEIIIEERPGQELTDVNGVRIAAPGIGVWNPAFDVTPHDLITGGIITELGVFAPEELRTALTTTISSRDGTLDGPQM [MRI1] | satisfied
MRRLNRKKTLSLVKELDAFPKVPESYVETSASGGTVSLIAFTTMALLTIMEFSVYQDTWMKYEYEVDKDFSSKLRINIDITVAMKCQYVGADVLDLAETMVASADGLVYEPTVFDLSPQQKEWQRMLQLIQSRLQEEHSLQDVIFKSAFKSTSTALPPREDDSSQSPNACRIHGHLYVNKVAGNFHITVGKAIPHPRGHAHLAALVNHESYNFSHRIDHLSFGELVPAIINPLDGTEKIAIDHNQMFQYFITVVPTKLHTYKISADTHQFSVTERERIINHAAGSHGVSGIFMKYDLSSLMVTVTEEHMPFWQFFVRLCGIVGGIFSTTGMLHGIGKFIVEIICCRFRLGSYKPVNSVPFEDGHTDNHLPLLENNTH [ERGIC2] | not satisfied

Determine whether this sequence has thermal stability score no lower than -1: MEKIPVSAFLLLVALSYTLARDTTVKPGAKKDTKDSRPKLPQTLSRGWGDQLIWTQTYEEALYKSKTSNKPLMIIHHLDECPHSQALKKVFAENKEIQKLAEQFVLLNLVYETTDKHLSPDGQYVPRIMFVDPSLTVRADITGRYSNRLYAYEPADTALLLDNMKKALKLLKTEL [AGR2]
not satisfied

* * *

system: HeLa Kyoto; assay: solubility in G1/S (NP-40 vs SDS abundance) (log2 ratio); higher = more soluble; conditions: cell cycle stage: G1/S
Reported solubility in G1/S (log2) is given for each of the following sequences.

Here is how some sequences turned out for solubility in G1/S (log2).
SEQ TEXT | solubility in G1/S (log2)
MAGWWPALSRAARRHPWPTNVLLYGSLVSAGDALQQRLQGREANWRQTRRVATLVVTFHANFNYVWLRLLERALPGRAPHALLAKLLCDQVVGAPIAVSAFYVGMSILQGKDDIFLDLKQKFWNTYLSGLMYWPFVQLTNFSLVPVQWRTAYAGVCGFLWATFICFSQQSGDGTFKSAFTILYTKGTSATEGYPKK [MPV17L] | -0.145
MFCEKAMELIRELHRAPEGQLPAFNEDGLRQVLEEMKALYEQNQSDVNEAKSGGRSDLIPTIKFRHCSLLRNRRCTVAYLYDRLLRIRALRWEYGSVLPNALRFHMAAEEMEWFNNYKRSLATYMRSLGGDEGLDITQDMKPPKSLYIEVRCLKDYGEFEVDDGTSVLLKKNSQHFLPRWKCEQLIRQGVLEHILS [GINS1] | -0.0577
MPVHSRGDKKETNHHDEMEVDYAENEGSSSEDEDTESSSVSEDGDSSEMDDEDCERRRMECLDEMSNLEKQFTDLKDQLYKERLSQVDAKLQEVIAGKAPEYLEPLATLQENMQIRTKVAGIYRELCLESVKNKYECEIQASRQHCESEKLLLYDTVQSELEEKIRRLEEDRHSIDITSELWNDELQSRKKRKDPFSPDKKKPVVVSGPYIVYMLQDLDILEDWTTIRKAMATLGPHRVKTEPPVKLEKHLHSARSEEGRLYYDGEWYIRGQTICIDKKDECPTSAVITTINHDEVWFKRPDGSKSKLYISQLQKGKYSIKHS [BRMS1L] | -0.0165
MASATAPAAAVPTLASPLEQLRHLAEELRLLLPRVRVGEAQETTEEFNREMFWRRLNEAAVTVSREATTLTIVFSQLPLPSPQETQKFCEQVHAAIKAFIAVYYLLPKDQGITLRKLVRGATLDIVDGMAQLMEVLSVTPTQSPENNDLISYNSVWVACQQMPQIPRDNKAAALLMLTKNVDFVKDAHEEMEQAVEECDPYSGLLNDTEENNSDNHNHEDDVLGFPSNQDLYWSEDDQELIIPCLALVRASKACLKKIRMLVAENGKKDQVAQLDDIVDISDEISPSVDDLALSIYPPMCHLTVRINSAKLVSVLKKALEITKASHVTPQPEDSWIPLLINAIDHCMNRIKELTQSELEL [CCNDBP1] | 0.509
MWHSVGLTLLVFVATLLIVLLLMVCGWYFVWHLFLSKFKFLRELVGDTGSQEGDHEPSGSETEEDTSSSPHRIRSARQRRAPADEGHRPLT [SMIM13] | -0.0724
MNRVNDPLIFIRDIKPGLKNLNVVFIVLEIGRVTKTKDGHEVRSCKVADKTGSITISVWDEIGGLIQPGDIIRLTRGYASMWKGCLTLYTGRGGELQKIGEFCMVYSEVPNFSEPNPDYRGQQNKGAQSEQKNNSMNSNMGTGTFGPVGNGVHTGPESREHQFSHAGRSNGRGLINPQLQGTASNQTVMTTISNGRDPRRAFKR [NABP1] | 0.0163

Given the sequence MAAAAAETPEVLRECGCKGIRTCLICERQRGSDPPWELPPAKTYRFIYCSDTGWAVGTEESDFEGWAFPFPGVMLIEDFVTREEEAELVRLMDRDPWKLSQSGRRKQDYGPKVNFRKQKLKTEGFCGLPSFSREVVRRMGLYPGLEGFRPVEQCNLDYCPERGSAIDPHLDDAWLWGERLVSLNLLSPTVLSMCREAPGSLLLCSAPSAAPEALVDSVIAPSRSVLCQEVEVAIPLPARSLLVLTGAARHQWKHAIHRRHIEARRVCVTFRELSAEFGPGGRQQELGQELLRIALSFQGRPV [ALKBH4] , write its reported solubility in G1/S (log2).
0.184

For the sequence MALAARLLPQFLHSRSLPCGAVRLRTPAVAEVRLPSATLCYFCRCRLGLGAALFPRSARALAASALPAQGSRWPVLSSPGLPAAFASFPACPQRSYSTEEKPQQHQKTKMIVLGFSNPINWVRTRIKAFLIWAYFDKEFSITEFSEGAKQAFAHVSKLLSQCKFDLLEELVAKEVLHALKEKVTSLPDNHKNALAANIDEIVFTSTGDISIYYDEKGRKFVNILMCFWYLTSANIPSETLRGASVFQVKLGNQNVETKQLLSASYEFQREFTQGVKPDWTIARIEHSKLLE [C2ORF47] , give its reported solubility in G1/S (log2).
-0.257

Using the record for MAETEALSKLREDFRMQNKSVFILGASGETGRVLLKEILEQGLFSKVTLIGRRKLTFDEEAYKNVNQEVVDFEKLDDYASAFQGHDVGFCCLGTTRGKAGAEGFVRVDRDYVLKSAELAKAGGCKHFNLLSSKGADKSSNFLYLQVKGEVEAKVEELKFDRYSVFRPGVLLCDRQESRPGEWLVRKFFGSLPDSWASGHSVPVVTVVRAMLNNVVRPRDKQMELLENKAIHDLGKAHGSLKP [HTATIP2] , state its measured solubility in G1/S (log2).
0.148

Report solubility in G1/S (log2), nothing else, for this sequence: MVQLRPRASRAPASAEAMVDEGQLASEEEEAEHGLLLGQPSSGAAAEPLEEDEEGDDEFDDEAPEELTFASAQAEAREEERRVRETVRRDKTLLKEKRKRREELFIEQKKRKLLPDTILEKLTTASQTNIKKSPGKVKEVNLQKKNEDCEKGNDSKKVKVQKVQSVSQNKSYLAVRLKDQDLRDSRQQAAQAFIHNSLYGPGTNRTTVNKFLSLANKRLPVKRAAVQFLNNAWGIQKKQNAKRFKRRWMVRKMKTKK [NOL7]
-1.02

Provide one value: measured solubility in G1/S (log2) of MLRLVPTGARAIVDMSYARHFLDFQGSAIPQAMQKLVVTRLSPNFREAVTLSRDCPVPLPGDGDLLVRNRFVGVNASDINYSAGRYDPSVKPPFDIGFEGIGEVVALGLSASARYTVGQAVAYMAPGSFAEYTVVPASIATPVPSVKPEYLTLLVSGTTAYISLKELGGLSEGKKVLVTAAAGGTGQFAMQLSKKAKCHVIGTCSSDEKSAFLKSLGCDRPINYKTEPVGTVLKQEYPEGVDVVYESVGGAMFDLAVDALATKGRLIVIGFISGYQTPTGLSPVKAGTLPAKLLKKSASVQGFFLNHYLSKYQAAMSHLLEMCVSGDLVCEVDLGDLSPEGRFTGLESIFRAVNYMYMGKNTGKIVVELPHSVNSKL [ZADH2]
0.198
